Target: T1, 4H72-bN
T1 chain: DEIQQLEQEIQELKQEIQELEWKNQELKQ
Assay: two-hybrid library CCNG1;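 note: natural log of median RNA to DNA barcode read ratio; higher means stronger binding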
Kindly supply the reported interaction score values for the records listed here.
Quick one: just the number, no unit, thanks!

Input line: Reported interaction score, binder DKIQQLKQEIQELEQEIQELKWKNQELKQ [4H2576-bN] : ____
Output line: 1.58

Input line: Reported interaction score, binder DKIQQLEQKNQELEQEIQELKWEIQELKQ [4H2442-bN] : ____
Output line: -0.588

Input line: Reported interaction score, binder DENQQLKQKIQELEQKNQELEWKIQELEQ [4H1845-bN] : ____
Output line: -0.603

Input line: Reported interaction score, binder DKNQQLEQKIQELEQENQELKWEIQELKQ [4H3354-bN] : ____
Output line: -1.09

Origin of measurements: paper PMC10397247
